Value source: patent EP1420018A1

target: benzodiazepine site of the GABA-A receptor; assay: Benzodiazepine Receptor Binding Assay (inhibition of 3H-flunitrazepam binding); conditions: read-out: GABAA Receptor Binding IC50
measured parameter: pIC50
Quick note: pIC50 means taking -log10 of the concentration in moles per liter.

Below, 5 compounds whose answers are already recorded.
COCCN1C2=C(C(=O)Nc3ccc(Br)s3)C(=O)CCN2c2ccc(F)cc21 [Compound 144] ... 8.28
CN(C)CCN1C2=C(C(=O)Nc3ccncc3)C(=O)CCN2c2ccccc21 [Compound 72] ... 5.42
COCCN1C2=C(C(=O)Nc3ccc(Cl)s3)C(=O)CCN2c2ccc(F)cc21 [Compound 145] ... 8.69
CC(C)(C)OC(=O)NCCN1C2=C(C(=O)Nc3ccccc3F)C(=O)CCN2c2ccc(F)cc21 [Compound 58] ... 9.27
COCCN1C2=C(C(=O)Nc3nccs3)C(=O)CCN2c2ccccc21 [Compound 102] ... 8.05

Exercise: For CCOCN1C2=C(C(=O)Nc3ccccc3F)C(=O)CCN2c2ccc(Cl)cc21 [Compound 157] , what is its reported pIC50?
Solution: 9.32

Exercise: For CCOCN1C2=C(C(=O)Nc3ccc(OC(C)C)cc3F)C(=O)CCN2c2ccc(F)cc21 [Compound 95] , what is its reported pIC50?
Solution: 8.60

Exercise: For O=C1CCN2C(=C1C(=O)Nc1ccccc1F)N(CCNC(=O)c1ccccc1)c1cc(F)ccc12 [Compound 46] , what is its reported pIC50?
Solution: 8.09

---

biological target: benzodiazepine site of the GABA-A receptor; experiment: Benzodiazepine Receptor Binding Assay (inhibition of 3H-flunitrazepam binding); conditions: read-out: GABAA Receptor Binding IC50
hey, just use fulfilled if measured IC50 is less than 6 nM, otherwise not fulfilled

N#CCN1C2=C(C(=O)NC3CC3)C(=O)CCN2c2ccc(F)cc21 [Compound 77] ... fulfilled
COCCN1C2=C(C(=O)Nc3ccccc3F)C(=O)CCN2c2ccccc21 [Compound 153] ... fulfilled
O=C(CN1C2=C(C(=O)Nc3ccccc3F)C(=O)CCN2c2ccc(F)cc21)Nc1ccccc1F [Compound 61] ... not fulfilled

Exercise: Below 6 nM on IC50? Entry CS(=O)(=O)NCCN1C2=C(C(=O)Nc3ccccc3F)C(=O)CCN2c2ccc(F)cc21 [Compound 50]
Solution: not fulfilled

Exercise: Below 6 nM on IC50? Entry COCCN1C2=C(C(=O)Nc3ccccc3F)C(=O)CCN2c2ccc(F)c(F)c21 [Compound 149]
Solution: fulfilled

Exercise: Below 6 nM on IC50? Entry O=C1CCN2C(=C1C(=O)Nc1ccccc1F)N(CCNS(=O)(=O)C(F)(F)F)c1cc(F)ccc12 [Compound 48]
Solution: not fulfilled

Exercise: Below 6 nM on IC50? Entry CCOCN1C2=C(C(=O)Nc3ccc(C)s3)C(=O)CCN2c2ccccc21 [Compound 101]
Solution: fulfilled

Exercise: Below 6 nM on IC50? Entry CN(CCN1C2=C(C(=O)Nc3c(F)cccc3F)C(=O)CCN2c2ccc(F)cc21)Cc1ccc(F)cc1 [Compound 65]
Solution: not fulfilled

---

biological target: benzodiazepine site of the GABA-A receptor; assay: Benzodiazepine Receptor Binding Assay (inhibition of 3H-flunitrazepam binding); details: read-out: GABAA Receptor Binding IC50
measured parameter: IC50 (nM)
Report as a plain number; the unit nM is understood.

Below, 5 compounds whose answers are already recorded.
CCOCCCN1C2=C(C(=O)Nc3ccccc3F)C(=O)CCN2c2ccc(F)cc21 [Compound 152] ... 0.28
CCOCN1C2=C(C(=O)Nc3ccccc3F)C(=O)CCN2c2ccc(F)c(F)c21 [Compound 103] ... 0.55
COCCOCN1C2=C(C(=O)Nc3ccccc3F)C(=O)CCN2c2ccc(F)cc21 [Compound 159] ... 0.8
O=C1CCN2C(=C1C(=O)Nc1c(F)cccc1F)N(CCN(Cc1ccccc1)Cc1ccccc1)c1cc(F)ccc12 [Compound 63] ... 15.5
CC(C)(C)OC(=O)CN1C2=C(C(=O)Nc3ccccc3F)C(=O)CCN2c2ccc(F)cc21 [Compound 176] ... 56.2

Exercise: For COCCN1C2=C(C(=O)Nc3ccc(C)s3)C(=O)CCN2c2ccccc21 [Compound 142] , what is its reported IC50?
Solution: 3.17

Exercise: For CCOCN1C2=C(C(=O)Nc3cccs3)C(=O)CCN2c2ccc(F)cc21 [Compound 129] , what is its reported IC50?
Solution: 1.05

Exercise: For CN(C)c1ccc(CCN2C3=C(C(=O)Nc4ccccc4F)C(=O)CCN3c3ccc(F)cc32)cc1 [Compound 84] , what is its reported IC50?
Solution: 8.52

---

Test system: Anxiety in the Adult Male Rat
Assay: Suppression of Anxiety in the Adult Male Rat (rat conflict test)
Format: in vivo, rats
Conditions: Rattus norvegicus, po, rat, po; read-out: Rat Conflict (MED, mg/kg) po
Procedure: Assay to Measure the Suppression of Anxiety in the Adult Male Rat Male rats were deprived of water for 48 hours and were deprived of food for 24 hours prior to testing. After the first 24 hours of water deprivation, they were placed in the conflict chamber for a training period; wherein, they were allowed 200 unpunished licks from a bottle containing tap water. The experiment was run the next day. […]
measured parameter: minimal effective dose (mg/kg)
Report as a plain number; the unit mg/kg is understood.

Below, 3 compounds whose answers are already recorded.
NCCN1C2=C(C(=O)Nc3ccccc3F)C(=O)CCN2c2ccc(F)cc21 ... 10
COCCN1C2=C(C(=O)Nc3c(F)cccc3F)C(=O)CCN2c2ccccc21 ... 10
O=C1CCN2C(=C1C(=O)Nc1ccccc1F)N(CC1CCOC1)c1cc(F)ccc12 (centres unmarked) ... 3

Continue with the next compound.
Exercise: For COCCN1C2=C(C(=O)Nc3ccccc3F)C(=O)CCN2c2ccc(F)cc21 , what is its reported minimal effective dose?
Solution: 0.1

---

Listing: minimal effective dose of selected compounds
System: Anxiety in the Adult Male Rat
Test: Suppression of Anxiety in the Adult Male Rat (rat conflict test)
Type: in vivo, rats
Settings: Rattus norvegicus, po, rat, po; read-out: Rat Conflict (MED, mg/kg) po
Procedure: Assay to Measure the Suppression of Anxiety in the Adult Male Rat Male rats were deprived of water for 48 hours and were deprived of food for 24 hours prior to testing. After the first 24 hours of water deprivation, they were placed in the conflict chamber for a training period; wherein, they were allowed 200 unpunished licks from a bottle containing tap water. The experiment was run the next day. […]

COCCN1C2=C(C(=O)Nc3ccc(Cl)s3)C(=O)CCN2c2ccc(F)cc21 ... > 10 mg/kg
CC(C)OCCN1C2=C(C(=O)Nc3ccccc3F)C(=O)CCN2c2ccc(F)cc21 ... 10 mg/kg
CCOCN1C2=C(C(=O)Nc3ccc(OCCOC)cc3F)C(=O)CCN2c2ccc(F)cc21 ... ≤ 0.3 mg/kg
COCCN1C2=C(C(=O)Nc3ccc(C)s3)C(=O)CCN2c2ccccc21 ... ~1 mg/kg

Exercise: For CCOCN1C2=C(C(=O)Nc3c(F)cccc3F)C(=O)CCN2c2c1ccc(F)c2F , what is its reported minimal effective dose?
Solution: > 10 mg/kg

Exercise: For CCOCN1C2=C(C(=O)Nc3ccccc3F)C(=O)CCN2c2cc(F)cc(F)c21 , what is its reported minimal effective dose?
Solution: > 10 mg/kg

Exercise: For CC(C)(C)OC(=O)N1CCN(CCN2C3=C(C(=O)Nc4ccccc4F)C(=O)CCN3c3ccc(F)cc32)CC1 , what is its reported minimal effective dose?
Solution: > 10 mg/kg

Exercise: For CCOCN1C2=C(C(=O)Nc3ccc(F)cc3F)C(=O)CCN2c2cc(F)cc(F)c21 , what is its reported minimal effective dose?
Solution: > 10 mg/kg

---

target: benzodiazepine site of the GABA-A receptor; experiment: Benzodiazepine Receptor Binding Assay (inhibition of 3H-flunitrazepam binding); details: read-out: GABAA Receptor Binding IC50
pIC50: −log10 of the molar value.
// bucketize pIC50: low value: < 8; medium value: ≥ 8 and < 9; high value: ≥ 9

Some solved entries appear below for comparison.
O=C1CCN2C(=C1C(=O)Nc1ccccc1F)N(CCCOCc1ccccc1)c1cc(F)ccc12 ... high value
CN(C)CCN1C2=C(C(=O)Nc3c(F)cccc3F)C(=O)CCN2c2ccc(F)cc21 ... low value
O=C(O)CN1C2=C(C(=O)Nc3ccccc3F)C(=O)CCN2c2ccc(F)cc21 ... low value
CCOCN1C2=C(C(=O)NC3CC3)C(=O)CCN2c2ccc(F)cc21 ... medium value
O=C(CN1C2=C(C(=O)Nc3c(F)cccc3F)C(=O)CCN2c2ccc(F)cc21)Nc1ccccc1F ... low value

Exercise: Record CN(C)CCN1C2=C(C(=O)Nc3cccs3)C(=O)CCN2c2ccc(F)cc21 — which class?
Solution: low value

Exercise: Record COCCN1C2=C(C(=O)NC3CC3)C(=O)CCN2c2ccc(F)cc21 — which class?
Solution: medium value

Exercise: Record COC(=O)OCCN1C2=C(C(=O)Nc3ccccc3F)C(=O)CCN2c2ccc(F)cc21 — which class?
Solution: high value

Exercise: Record COCCN1C2=C(C(=O)Nc3ccc(OC)cc3)C(=O)CCN2c2ccc(F)cc21 — which class?
Solution: medium value
